target under test: FGFR1 (UniProt P11362)
Sequence (P11362 whole entry, looked up): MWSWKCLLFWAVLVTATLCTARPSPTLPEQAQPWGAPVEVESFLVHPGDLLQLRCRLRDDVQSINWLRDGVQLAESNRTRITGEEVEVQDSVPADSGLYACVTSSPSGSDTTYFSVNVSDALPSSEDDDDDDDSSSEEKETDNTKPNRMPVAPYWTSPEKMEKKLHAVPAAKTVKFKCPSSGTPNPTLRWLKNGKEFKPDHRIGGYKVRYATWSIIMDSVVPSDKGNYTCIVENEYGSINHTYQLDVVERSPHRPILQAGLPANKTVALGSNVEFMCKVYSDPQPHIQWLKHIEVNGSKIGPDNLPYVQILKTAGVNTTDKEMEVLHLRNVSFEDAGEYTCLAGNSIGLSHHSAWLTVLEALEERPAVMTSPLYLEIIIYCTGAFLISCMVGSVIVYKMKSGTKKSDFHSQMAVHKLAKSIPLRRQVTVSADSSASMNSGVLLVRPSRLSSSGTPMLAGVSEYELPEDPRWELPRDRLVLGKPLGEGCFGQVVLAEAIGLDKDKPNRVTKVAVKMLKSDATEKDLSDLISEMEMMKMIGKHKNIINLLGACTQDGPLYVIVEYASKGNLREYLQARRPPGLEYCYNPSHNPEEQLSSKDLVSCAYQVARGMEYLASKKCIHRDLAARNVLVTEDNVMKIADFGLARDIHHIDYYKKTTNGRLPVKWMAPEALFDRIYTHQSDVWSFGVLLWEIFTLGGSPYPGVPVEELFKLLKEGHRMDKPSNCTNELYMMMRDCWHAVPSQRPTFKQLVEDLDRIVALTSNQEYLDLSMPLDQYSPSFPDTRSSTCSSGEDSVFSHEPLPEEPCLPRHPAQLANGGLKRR
assay explanation: phosphorylation enrichment, bacterial display (enrichment ratio); higher = better substrate or ligand; peptides without Tyr show the background;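 also: 11-residue human phosphosite peptides and single-mutation variants displayed on the E. coli surface, counted by deep sequencing, each peptide's frequency after selection divided by its frequency in the unselected input library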;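 also: frequency after pTyr selection over input frequency; kinase dosed for 20-30% of maximal phosphorylation in three min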
Measured phosphorylation enrichment by item
Format: numeric value only, no unit, no commentary.

See these solved cases before continuing.
1. SGDITYGQFAQ [PLCG1_Y210]; 0.426
2. GISDEYHMIRH [GCDH_Y398_V400M]; 7.6
3. LRGEDCGFSVD [PRKCI_Y430_Y430C]; 0.847
4. TDRNLYSKNLV [CFAP58_Y501_S496T]; 0.505
5. EWQQIYTYDSG [JUP_Y20_T19I]; 6.84

**Q:** Form entry - test system: FGFR1 (UniProt P11362); read-out: phosphorylation enrichment; sequence: FEPWVYSLSYE [PRKDC_Y647_F649L]
**A:** 0.602

**Q:** Form entry - test system: FGFR1 (UniProt P11362); read-out: phosphorylation enrichment; sequence: EFQLPYFNTVP [BMPR1A_Y457_M460T_YF]
**A:** 0.682
